Substrate: CC chemokine receptor 5 (CCR5), clone 8.5 cDNA, stably expressed on HEK 293 cells (human), P51681
Sequence (P51681 whole entry): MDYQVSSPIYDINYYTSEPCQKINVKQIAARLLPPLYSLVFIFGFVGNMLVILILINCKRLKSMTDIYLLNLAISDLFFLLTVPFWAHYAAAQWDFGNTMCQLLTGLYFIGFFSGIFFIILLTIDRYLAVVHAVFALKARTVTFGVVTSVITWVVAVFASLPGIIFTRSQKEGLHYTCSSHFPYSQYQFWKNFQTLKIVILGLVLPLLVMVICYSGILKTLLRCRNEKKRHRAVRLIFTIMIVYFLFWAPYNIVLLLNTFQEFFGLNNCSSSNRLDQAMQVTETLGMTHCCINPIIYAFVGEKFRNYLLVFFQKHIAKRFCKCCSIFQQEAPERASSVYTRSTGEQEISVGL
Assay: homologous competition against ^125I-RANTES on CCR5.1 cells, 37° C.
Conditions: remark: other sources report otherwise

>  <binder>
RANTES, P13501 24-91 (ligand, human, UniProt P13501 24-91, looked up) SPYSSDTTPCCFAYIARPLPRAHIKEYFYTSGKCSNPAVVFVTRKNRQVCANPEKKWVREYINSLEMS

>  <IC50 / nM>
80

$$$$
